target_entity: human TLR9 (Homo sapiens, UniProt Q9NR96)
Sequence (Q9NR96 26-1032): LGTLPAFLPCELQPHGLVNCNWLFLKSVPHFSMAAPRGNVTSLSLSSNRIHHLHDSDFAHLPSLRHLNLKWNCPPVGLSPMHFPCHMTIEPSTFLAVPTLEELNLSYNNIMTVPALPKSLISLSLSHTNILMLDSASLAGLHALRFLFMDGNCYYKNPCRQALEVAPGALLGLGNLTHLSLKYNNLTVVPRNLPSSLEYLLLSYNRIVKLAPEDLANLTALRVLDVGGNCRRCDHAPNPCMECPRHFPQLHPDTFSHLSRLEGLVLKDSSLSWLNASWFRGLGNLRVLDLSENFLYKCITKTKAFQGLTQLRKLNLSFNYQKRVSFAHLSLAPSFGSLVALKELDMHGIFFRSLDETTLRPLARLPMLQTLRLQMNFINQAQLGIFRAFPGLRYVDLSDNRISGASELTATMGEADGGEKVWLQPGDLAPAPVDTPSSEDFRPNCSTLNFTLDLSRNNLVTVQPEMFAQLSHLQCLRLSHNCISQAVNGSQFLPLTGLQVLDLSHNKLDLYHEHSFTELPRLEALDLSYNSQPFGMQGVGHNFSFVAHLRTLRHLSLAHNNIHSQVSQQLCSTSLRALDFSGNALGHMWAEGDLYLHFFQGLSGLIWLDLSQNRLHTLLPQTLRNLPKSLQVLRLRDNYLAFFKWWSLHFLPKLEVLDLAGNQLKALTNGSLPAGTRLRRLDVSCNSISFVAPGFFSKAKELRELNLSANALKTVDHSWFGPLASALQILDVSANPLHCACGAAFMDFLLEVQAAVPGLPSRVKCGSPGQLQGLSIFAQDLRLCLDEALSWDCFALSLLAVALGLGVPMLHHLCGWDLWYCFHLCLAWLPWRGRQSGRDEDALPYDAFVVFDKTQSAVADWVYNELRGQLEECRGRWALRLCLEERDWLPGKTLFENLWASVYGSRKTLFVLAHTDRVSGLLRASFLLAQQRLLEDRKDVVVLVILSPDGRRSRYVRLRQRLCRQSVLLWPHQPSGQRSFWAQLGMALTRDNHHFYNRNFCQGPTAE
protocol_description: TLR9 inhibition reporter assay (HEK-Blue cells, SEAP reporter, ODN2006 stimulation)
conditions: HEK-Blue cells overexpressing human TLR9, ODN2006 5 nM
pIC50: −log10 of the molar value.
endpoint_name: pIC50

Observe how each entry below is paired with its result.
> print(dat)
                                   molecule  endpoint.name  test.value
1  COc1ccc(-c2[nH]c3ccc(C4CCN(C(=O)CN5CCC[C@H](C(=O)N6CCN(c7cccc(C(F)(F)F)c7)CC6)C5)CC4)cc3c2C(C)C)cc1OC [Example 290]          pIC50        5.27
2  COc1ccc(-c2[nH]c3ccc(C4CCN(C(C)c5ccccc5)CC4)cc3c2C)cc1OC (stereo not shown) [Example 27]          pIC50        5.55

P = COc1ccc(-c2[nH]c3ccc(C4CCN(Cc5cc6ccccc6n5C)CC4)cc3c2C)cc1OC [Example 33]
Q = COc1ccc(-c2[nH]c3ccc(C4CCN(Cc5cccc6ncccc56)CC4)cc3c2C)cc1OC [Example 15]
R = COc1ccc(-c2[nH]c3ccc(C4CCN(C5CCN(C6CCCC(C(F)(F)F)C6)CC5)CC4)cc3c2C)cc1OC (stereo not shown) [Example 79]
S = COc1ccc(-c2[nH]c3ccc(C4CCN(Cc5ccc(OC(F)(F)F)cc5)CC4)cc3c2C(C)C)cc1OC [Example 271]
T = COc1ccc(-c2[nH]c3ccc(C4CCN(C5CCN(CC(C)C)CC5)CC4)cc3c2C(C)C)cc1OC [Example 199]
Exercise: In this exercise, place the 5 molecules in ascending sequence of their recorded pIC50. Ranked list of labels, please, in the requested order.
Key: S, P, Q, T, R

###

target_entity: human TLR7 (Homo sapiens, UniProt Q9NYK1)
Construct: host or cells: HEK-Blue cells
Sequence (Q9NYK1 27-1049): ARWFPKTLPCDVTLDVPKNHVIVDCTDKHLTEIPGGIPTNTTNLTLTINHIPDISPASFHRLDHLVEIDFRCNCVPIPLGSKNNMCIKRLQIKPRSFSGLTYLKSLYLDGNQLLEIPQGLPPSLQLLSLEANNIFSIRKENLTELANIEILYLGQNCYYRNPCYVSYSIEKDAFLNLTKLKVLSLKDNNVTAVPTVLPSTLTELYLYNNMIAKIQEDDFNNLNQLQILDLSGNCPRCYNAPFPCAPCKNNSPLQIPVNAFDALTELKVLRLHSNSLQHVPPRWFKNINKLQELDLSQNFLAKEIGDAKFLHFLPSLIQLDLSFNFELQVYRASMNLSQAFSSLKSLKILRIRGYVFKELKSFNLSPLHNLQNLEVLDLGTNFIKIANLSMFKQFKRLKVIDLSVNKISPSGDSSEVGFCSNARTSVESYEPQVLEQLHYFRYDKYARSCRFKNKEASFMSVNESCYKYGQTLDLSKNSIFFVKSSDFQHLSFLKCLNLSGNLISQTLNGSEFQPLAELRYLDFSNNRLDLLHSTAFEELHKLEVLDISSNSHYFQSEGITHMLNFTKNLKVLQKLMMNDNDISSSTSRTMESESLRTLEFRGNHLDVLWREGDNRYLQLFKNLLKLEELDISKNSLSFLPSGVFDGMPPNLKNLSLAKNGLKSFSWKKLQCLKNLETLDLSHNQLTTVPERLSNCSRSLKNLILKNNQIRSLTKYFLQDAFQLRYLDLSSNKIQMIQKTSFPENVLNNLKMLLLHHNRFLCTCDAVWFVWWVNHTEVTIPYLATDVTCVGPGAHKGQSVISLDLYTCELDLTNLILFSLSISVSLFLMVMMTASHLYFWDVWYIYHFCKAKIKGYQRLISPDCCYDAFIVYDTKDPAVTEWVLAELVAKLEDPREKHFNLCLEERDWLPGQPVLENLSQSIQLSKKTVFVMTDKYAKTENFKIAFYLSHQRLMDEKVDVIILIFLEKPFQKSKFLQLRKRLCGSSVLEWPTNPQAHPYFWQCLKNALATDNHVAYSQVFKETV
protocol_description: TLR7 inhibition reporter assay (HEK-Blue cells, SEAP reporter, gardiquimod stimulation)
Type: cell-based
conditions: HEK-Blue cells overexpressing human TLR7, gardiquimod 7.5 μM
endpoint_name: IC50 (nM)

> print(dat)
                                   molecule  endpoint.name  endpoint.unit  test.value
1  COc1ccc(-c2[nH]c3ccc(C4CCN(C5CCN(C6CCCC(C)C6)CC5)CC4)cc3c2C)cc1OC (stereo not shown)           IC50             nM        1950

a = COc1ccc(-c2[nH]c3ccc(C4CCN(Cc5ccc(-n6ccnc6)cc5)CC4)cc3c2C)cc1OC
b = COc1ccc(-c2[nH]c3ccc(C4CCN(C5CCN(CC(C)C)CC5)CC4)cc3c2C)cc1OC
c = CCc1c(-c2ccc(OC)c(OC)c2)[nH]c2ccc(C3CCN(C(=O)CN4CCOCC4)CC3)cc12
Exercise: In this exercise, place the 3 molecules in ascending sequence of their recorded IC50. Ranked list of labels, please, in the requested order.
Key: c, b, a
(c: 179 nM, b: 1230 nM, a: 1980 nM)

###

target_entity: human TLR8 (Homo sapiens)
Construct: host or cells: HEK-Blue cells
Sequence (Q9NR97 27-1041): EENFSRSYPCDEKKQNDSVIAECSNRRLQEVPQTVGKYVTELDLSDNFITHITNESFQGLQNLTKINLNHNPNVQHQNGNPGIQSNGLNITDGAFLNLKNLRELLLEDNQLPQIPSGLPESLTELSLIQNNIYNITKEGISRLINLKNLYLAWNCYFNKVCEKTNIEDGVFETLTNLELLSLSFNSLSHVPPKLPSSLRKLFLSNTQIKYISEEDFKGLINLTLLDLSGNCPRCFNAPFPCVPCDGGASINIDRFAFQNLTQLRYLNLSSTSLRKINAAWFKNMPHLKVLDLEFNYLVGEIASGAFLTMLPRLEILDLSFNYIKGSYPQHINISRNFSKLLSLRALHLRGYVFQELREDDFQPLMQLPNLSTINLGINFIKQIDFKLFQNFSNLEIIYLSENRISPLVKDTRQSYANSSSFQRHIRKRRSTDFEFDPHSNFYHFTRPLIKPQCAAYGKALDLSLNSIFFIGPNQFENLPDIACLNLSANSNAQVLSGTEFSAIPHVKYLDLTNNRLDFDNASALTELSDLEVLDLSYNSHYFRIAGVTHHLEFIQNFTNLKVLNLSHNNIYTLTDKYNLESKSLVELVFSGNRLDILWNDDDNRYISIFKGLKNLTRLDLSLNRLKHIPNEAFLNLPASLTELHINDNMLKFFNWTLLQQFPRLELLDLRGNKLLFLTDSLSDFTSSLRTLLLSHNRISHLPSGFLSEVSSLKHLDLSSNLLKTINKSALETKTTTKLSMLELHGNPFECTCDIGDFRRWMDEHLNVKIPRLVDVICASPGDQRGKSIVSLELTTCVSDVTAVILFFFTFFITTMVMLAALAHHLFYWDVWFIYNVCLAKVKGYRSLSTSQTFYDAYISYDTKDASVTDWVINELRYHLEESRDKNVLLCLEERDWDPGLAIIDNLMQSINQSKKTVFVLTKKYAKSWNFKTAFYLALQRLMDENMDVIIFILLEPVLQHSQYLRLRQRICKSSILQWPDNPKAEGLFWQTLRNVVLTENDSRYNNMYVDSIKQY
protocol_description: TLR8 inhibition reporter assay (HEK-Blue cells, SEAP reporter, R848 stimulation)
Assay type: cell-based
conditions: HEK-Blue cells overexpressing human TLR8, R848 15.9 μM
pIC50: −log10 of the molar value.
endpoint_name: pIC50

P = COc1ccc(-c2[nH]c3ccc(C4CCN(CC(=O)N5CC[C@@H](N(C)C)C5)CC4)cc3c2CC(F)(F)F)cc1OC
Q = CCCCCN1CCC(N2CCC(c3ccc4[nH]c(-c5ccc(OC)c(OC)c5)c(C)c4c3)CC2)CC1
R = COc1ccc(-c2[nH]c3ccc(C4CCN(C5CCN(CC6CCOC6)CC5)CC4)cc3c2C)cc1OC (stereo not shown)
S = CCc1c(-c2ccc(OC)c(OC)c2)[nH]c2ccc(C3CCN(C(=O)CN4CC[C@@H](O)C4)CC3)cc12
Exercise: Quick one: which order do the items above go in by pIC50, smallest to largest? Ranked list of labels, please, in the requested order.
Key: Q, R, P, S

###

target_entity: human TLR9 (Homo sapiens)
protocol_description: TLR9 inhibition reporter assay (HEK-Blue cells, SEAP reporter, ODN2006 stimulation)
conditions: HEK-Blue cells overexpressing human TLR9, ODN2006 5 nM
endpoint_name: IC50 (nM)

> print(dat)
                  compound.structure.string  endpoint.name  endpoint.unit  test.value
1  COc1ccc(-c2[nH]c3ccc(C4CCN(C(=O)CN5CCC[C@H](C(=O)NCC(N)=O)C5)CC4)cc3c2C(C)C)cc1OC           IC50             nM        3940
2  CCc1c(-c2ccc(OC)c(OC)c2)[nH]c2ccc(C3CCN(C(C)=O)CC3)cc12           IC50             nM       32400
3  COc1ccc(-c2[nH]c3ccc(C4CCN(C5CCN(C6CCCC6)CC5)CC4)cc3c2C)cc1OC           IC50             nM         196
4  CCc1c(-c2ccc(OC)c(OC)c2)[nH]c2ccc(C3CCN(C4CCN(C(C)C)CC4)CC3)cc12           IC50             nM         556

I = COc1ccc(-c2[nH]c3ccc(C4CCN(C5CCN(CC6CC6)CC5)CC4)cc3c2C(C)C)cc1OC
II = COc1ccc(-c2[nH]c3ccc(C4CCN(C(=O)CCCNC(C)=O)CC4)cc3c2CC(F)(F)F)cc1OC
III = COc1ccc(-c2[nH]c3ccc(C4CCN(C(=O)CCN(C)C)CC4)cc3c2CC(F)(F)F)cc1OC
IV = CCc1c(-c2ccc(OC)c(OC)c2)[nH]c2ccc(C3CCN(C(=O)CNC(CO)CO)CC3)cc12
V = CCc1c(-c2ccc(OC)c(OC)c2)[nH]c2ccc(C3CCN(C4CCN(C5CCCC5)CC4)CC3)cc12
Exercise: In this exercise, place the 5 molecules in ascending sequence of their recorded IC50. Ranked list of labels, please, in the requested order.
Key: V, I, III, IV, II
(V: 233 nM, I: 490 nM, III: 914 nM, IV: 5170 nM, II: 40800 nM)

###

target_entity: human TLR8 (Homo sapiens)
protocol_description: TLR8 inhibition reporter assay (HEK-Blue cells, SEAP reporter, R848 stimulation)
conditions: HEK-Blue cells overexpressing human TLR8, R848 15.9 μM
pIC50: −log10 of the molar value.
endpoint_name: pIC50

> print(dat)
                                   molecule  endpoint.name  test.value
1  COc1ccc(-c2[nH]c3ccc(C4CCN(C(=O)CN(C)CCO)CC4)cc3c2C)cc1OC [Example 408]          pIC50        5.32

P = COc1ccc(-c2[nH]c3ccc(C4CCN(CC(=O)N5CCC(C(N)=O)CC5)CC4)cc3c2CC(F)(F)F)cc1OC [Example 369]
Q = COc1ccc(-c2[nH]c3ccc(C4CCNCC4F)cc3c2C(C)C)cc1OC (single isomer, unassigned) [Example 322]
Exercise: Hi there! Just curious which has the higher pIC50 between P and Q . Bench note: the answer is the label of the chosen record.
Key: Q
(Q: 7.66, P: 7.37)

Reference source: patent US11180474B2
